Tested on: Staphylococcus aureus
experiment-notes: Antibacterial activity against methicillin-resistant Staphylococcus aureus N315 after 24 hrs by twofold serial dilution method
Assay type: functional
test-context: N315, 24 h
assay-metric: MIC (µg/mL)
Form entry: value (µg/mL) — number only.

| smiles-text | target | quantitative-readout |
| --- | --- | --- |
| O=C1c2cccc3c(Br)ccc(c23)C(=O)N1CCCCCC[n+]1cnn(CC(O)(Cn2c[n+](CCCCCCN3C(=O)c4cccc5c(Br)ccc(c45)C3=O)cn2)c2ccc(F)cc2F)c1.[Br-].[Br-] | Staphylococcus aureus | 16 |

Q. Observed MIC on Staphylococcus aureus for OC(Cn1c[n+](Cc2ccc(Cl)cc2Cl)cn1)(Cn1c[n+](Cc2ccc(Cl)cc2Cl)cn1)c1ccc(F)cc1F.[Cl-].[Cl-] , please.
A. 4

Q. Observed MIC on Staphylococcus aureus for Fc1ccc(Cn2c[n+](CCOc3ccc4ccccc4c3)cn2)c(F)c1.[Br-] , please.
A. 64

Q. Observed MIC on Staphylococcus aureus for OC(Cn1c[n+](Cc2ccc(Cl)cc2Cl)cn1)(Cn1c[n+](Cc2ccc(Cl)cc2Cl)cn1)c1ccc(F)cc1F.[I-].[I-] , please.
A. 64
